Data origin: patent US6737383B1

tested on: pigweed; assay: Test B pre/postemergence pigweed; type: in vivo, Amaranthus retroflexus; details: Postemergence, Rate 250 g/ha; scale 0 to 10
MEASUREMENT LABEL: Redroot pigweed plant response rating

- MOLECULE: "COC(CCl)n1c(=O)on(C(=O)N(c2ccc(Cl)cc2)C(C)C)c1=O (stereo not shown) [Compound 458]"
  OBSERVED: 0
- MOLECULE: "CC(C)N(C(=O)n1oc(=O)n(C(C)C(=O)N(C)C)c1=O)c1ccc(Cl)cc1 (stereo not shown) [Compound 480]"
  OBSERVED: 1
- MOLECULE: "CC(C)N(C(=O)n1oc(=O)n(CC2=NOCCC2)c1=O)c1ccc(Cl)cc1 [Compound 450]"
  OBSERVED: 0
- MOLECULE: "COC(OC)C(C)n1c(=O)on(C(=O)N(c2ccc(F)cc2F)C(C)C)c1=O (stereo not shown) [Compound 472]"
  OBSERVED: 3

* * *

tested on: pigweed; test: Test B pre/postemergence pigweed; format: in vivo, Amaranthus retroflexus; settings: Preemergence, Rate 125 g/ha
MEASUREMENT LABEL: Redroot pigweed plant response rating (0 to 10 scale)

- MOLECULE: "Cc1nsc(Cl)c1Cn1c(=O)on(C(=O)N(c2ccc(F)cc2)C(C)C)c1=O"
  TESTED ON: "pigweed"
  OBSERVED: 3
- MOLECULE: "CC(C)N(C(=O)n1oc(=O)n(-c2ccc3ccccc3c2)c1=O)c1ccc(F)cc1F"
  TESTED ON: "pigweed"
  OBSERVED: 0
- MOLECULE: "CC(C)C(C)n1c(=O)on(C(=O)N(c2ccc(F)cc2)C(C)C)c1=O (stereo not shown)"
  TESTED ON: "pigweed"
  OBSERVED: 6
- MOLECULE: "CC(C)N(C(=O)n1oc(=O)n(C2CCCCO2)c1=O)c1ccc(F)cc1 (stereo not shown)"
  TESTED ON: "pigweed"
  OBSERVED: 0

* * *

System: sugar beet
Assay: Test B pre/postemergence sugar beet
Format: in vivo, Beta vulgaris
Details: Preemergence, Rate 250 g/ha; scale of 0 to 10 where 0 is no effect and 10 is complete control
Experimental: […] At the same time, these crop and weed species were also treated with postemergence applications of test chemicals formulated in the same manner. […] Treated plants and controls were maintained in a greenhouse for twelve to sixteen days, after which all species were compared to controls and visually evaluated. […]
Fulfilled means recorded Plant response rating, Sugarbeets is 4 or above; Not fulfilled means it is below 4.

- COMPOUND: "CCCn1c(=O)on(C(=O)N(c2ccc(Cl)cc2)C(C)C)c1=O"
  TESTED ON: "sugar beet"
  LABEL: "Fulfilled"
- COMPOUND: "C=CCn1c(=O)on(C(=O)N(c2ccccc2)C(C)C)c1=O"
  TESTED ON: "sugar beet"
  LABEL: "Fulfilled"
- COMPOUND: "Cc1ccccc1-n1c(=O)on(C(=O)N(c2ccc(F)cc2)C(C)C)c1=O"
  TESTED ON: "sugar beet"
  LABEL: "Fulfilled"
- COMPOUND: "CCN(C(=O)n1oc(=O)n(-c2c(C)cc(C)cc2C)c1=O)C1CCCCC1"
  TESTED ON: "sugar beet"
  LABEL: "Not fulfilled"
- COMPOUND: "CC(C)N(C(=O)n1oc(=O)n(C2CCCCC2C(F)(F)F)c1=O)c1ccc(F)cc1 (centres unmarked)"
  TESTED ON: "sugar beet"
  LABEL: "Not fulfilled"
- COMPOUND: "Cc1cccc(C)c1-n1c(=O)on(C(=O)N(c2ccccc2)C(C)C)c1=O"
  TESTED ON: "sugar beet"
  LABEL: "Not fulfilled"
